Overview of recorded phosphorylation enrichment for various sequences
# test-target: MERTK (UniProt Q12866)
# Sequence (Q12866 whole entry, looked up): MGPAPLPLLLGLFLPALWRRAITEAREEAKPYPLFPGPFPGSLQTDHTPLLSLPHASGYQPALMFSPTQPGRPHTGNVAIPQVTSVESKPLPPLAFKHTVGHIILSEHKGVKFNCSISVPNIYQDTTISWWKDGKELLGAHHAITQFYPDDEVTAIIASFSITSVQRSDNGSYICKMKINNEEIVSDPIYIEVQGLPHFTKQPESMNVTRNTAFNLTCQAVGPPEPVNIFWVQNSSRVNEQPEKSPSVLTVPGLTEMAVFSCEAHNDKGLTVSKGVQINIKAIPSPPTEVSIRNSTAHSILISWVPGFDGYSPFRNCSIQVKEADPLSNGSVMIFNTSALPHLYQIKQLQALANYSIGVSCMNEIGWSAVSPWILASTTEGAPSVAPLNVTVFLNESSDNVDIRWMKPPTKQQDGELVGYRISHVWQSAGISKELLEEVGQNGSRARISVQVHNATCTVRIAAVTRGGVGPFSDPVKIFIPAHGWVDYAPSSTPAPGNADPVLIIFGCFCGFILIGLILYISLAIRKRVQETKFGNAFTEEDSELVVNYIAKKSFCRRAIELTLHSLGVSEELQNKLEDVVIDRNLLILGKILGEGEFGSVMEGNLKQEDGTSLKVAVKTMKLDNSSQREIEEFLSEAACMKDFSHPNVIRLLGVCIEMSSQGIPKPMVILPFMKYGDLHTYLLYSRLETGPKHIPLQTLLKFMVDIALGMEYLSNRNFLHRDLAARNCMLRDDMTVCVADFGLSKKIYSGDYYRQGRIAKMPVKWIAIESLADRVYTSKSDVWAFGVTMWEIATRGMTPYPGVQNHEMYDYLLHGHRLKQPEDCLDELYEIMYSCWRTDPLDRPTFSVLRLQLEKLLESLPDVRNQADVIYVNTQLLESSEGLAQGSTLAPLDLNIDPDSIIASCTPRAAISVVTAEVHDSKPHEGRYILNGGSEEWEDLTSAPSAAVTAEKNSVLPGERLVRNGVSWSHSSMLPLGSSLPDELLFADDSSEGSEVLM
# assay-details: phosphorylation enrichment, bacterial display (enrichment ratio); higher = better substrate or ligand; peptides without Tyr show the background;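 further: 11-residue human phosphosite peptides and single-mutation variants displayed on the E. coli surface, counted by deep sequencing, each peptide's frequency after selection divided by its frequency in the unselected input library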;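 further: frequency after pTyr selection over input frequency; kinase dosed for 20-30% of maximal phosphorylation in three min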
Output spec: single numeric token, no unit.

The examples below pair each entry with its known result.
>>> df
                               seq  quantitative_readout
0  PQAVTYATVKH [LILRB4_Y360_K362T]                 0.543
1         DDLEVYLKHLL [SACS_Y3477]                 0.409
2           EQYELYCEMGS [CBL_Y371]                  5.03
3  LTSKPYAFTAQ [NDUFS1_Y236_R241Q]                 0.411
4           YQGGTYSKAST [FGG_Y380]                  0.43
5         LNCAGYCDALE [MTUS1_Y151]                 0.617

Lab note: need phosphorylation enrichment with MERTK (UniProt Q12866) for entry GLAELYEFKKK [CKAP5_Y1854_YF] , please look it up. 0.381

Lab note: need phosphorylation enrichment with MERTK (UniProt Q12866) for entry KPGVNYFFQVS , please look it up. 0.508

Lab note: need phosphorylation enrichment with MERTK (UniProt Q12866) for entry SRNKPYISWPS [CDC42BPB_Y1638] , please look it up. 0.441

Lab note: need phosphorylation enrichment with MERTK (UniProt Q12866) for entry VGTKRYMAPEV [ACVRL1_Y375] , please look it up. 0.389

Lab note: need phosphorylation enrichment with MERTK (UniProt Q12866) for entry ESKKHYGYSLY [ANXA3_Y295_F291S] , please look it up. 0.486

###

# test-target: MERTK (UniProt Q12866)
# assay-details: phosphorylation enrichment, bacterial display (enrichment ratio); higher = better substrate or ligand; peptides without Tyr show the background
Overview of recorded phosphorylation enrichment for various sequences

The examples below pair each entry with its known result.
                              seq             test_target  result
0  VIESSYTSADG [DHCR7_Y382_C380S]  MERTK (UniProt Q12866)   0.596
1                     TENAGYFFRIS  MERTK (UniProt Q12866)   0.388
2      FEEDPYLVVNP [MCM6_Y810_YF]  MERTK (UniProt Q12866)   0.533

Read the next record carefully.
Given the entry AVLSLCASGRT [ACTA2_Y145_Y145C] , report its measured phosphorylation enrichment. 0.402

###

Overview of recorded phosphorylation enrichment for various sequences
# test-target: EPHB1 (UniProt P54762)
# Sequence (P54762 whole entry, looked up): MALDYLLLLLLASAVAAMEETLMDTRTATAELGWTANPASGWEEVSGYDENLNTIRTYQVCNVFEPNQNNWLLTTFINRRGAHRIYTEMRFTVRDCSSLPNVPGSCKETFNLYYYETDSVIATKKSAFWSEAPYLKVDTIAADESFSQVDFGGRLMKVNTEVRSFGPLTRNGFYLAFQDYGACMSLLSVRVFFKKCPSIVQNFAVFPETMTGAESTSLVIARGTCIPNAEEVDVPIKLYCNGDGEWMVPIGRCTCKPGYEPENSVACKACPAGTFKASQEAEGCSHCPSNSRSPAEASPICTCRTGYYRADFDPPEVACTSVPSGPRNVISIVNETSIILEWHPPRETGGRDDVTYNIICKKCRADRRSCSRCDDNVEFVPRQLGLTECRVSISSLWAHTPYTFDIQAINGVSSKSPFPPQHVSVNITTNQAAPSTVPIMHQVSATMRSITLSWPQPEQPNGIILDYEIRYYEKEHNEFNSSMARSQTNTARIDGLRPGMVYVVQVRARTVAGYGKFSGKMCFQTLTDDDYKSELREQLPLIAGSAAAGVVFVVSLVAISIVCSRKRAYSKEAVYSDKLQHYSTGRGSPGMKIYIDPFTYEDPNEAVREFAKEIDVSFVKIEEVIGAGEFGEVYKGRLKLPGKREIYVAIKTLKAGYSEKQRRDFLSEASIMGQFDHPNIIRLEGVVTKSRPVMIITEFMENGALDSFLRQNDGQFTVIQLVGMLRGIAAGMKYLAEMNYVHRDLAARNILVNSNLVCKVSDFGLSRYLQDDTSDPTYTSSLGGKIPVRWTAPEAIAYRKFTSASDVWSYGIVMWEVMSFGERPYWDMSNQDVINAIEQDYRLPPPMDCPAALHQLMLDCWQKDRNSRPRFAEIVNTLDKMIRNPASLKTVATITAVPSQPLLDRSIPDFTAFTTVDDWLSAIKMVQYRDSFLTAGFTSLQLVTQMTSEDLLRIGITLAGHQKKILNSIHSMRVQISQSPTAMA
# assay-details: phosphorylation enrichment, bacterial display (enrichment ratio); higher = better substrate or ligand; peptides without Tyr show the background

The examples below pair each entry with its known result.
>>> print(df.to_string())
                                 seq               assay_readout  result
0      GKSHIYFWTLD [EML2_Y230_E235D]  phosphorylation enrichment   0.622
1  INNIDYFKNTT [FGFR2_Y656_K659N_YF]  phosphorylation enrichment   0.374
2          SENPKYPEVGD [TMEM43_Y233]  phosphorylation enrichment   0.459
3             DSSIRYLQEIY [FGG_Y135]  phosphorylation enrichment   0.587

Given the entry TSYQMYDKGLV [IARS2_Y231_F227S] , report its measured phosphorylation enrichment. 0.468

Given the entry LRAGVYPEKDQ [DNM2_Y626] , report its measured phosphorylation enrichment. 0.443

Given the entry DNEAIYDICRC [TUBA4A_Y210_R215C] , report its measured phosphorylation enrichment. 1.82

Given the entry FDDGKYVFVVT [RPS6KA3_Y488_YF] , report its measured phosphorylation enrichment. 0.652

Given the entry ILTLKYPIERG [ACTA1_Y71_H75R] , report its measured phosphorylation enrichment. 0.542

Given the entry VLTSKYHGGGG [HBA1_Y141_R142H] , report its measured phosphorylation enrichment. 0.336

Given the entry DSSIRYLQEIF [FGG_Y135_YF] , report its measured phosphorylation enrichment. 0.576
